The entries below are paired with their reported ALP.
species: Rattus norvegicus; test: Open TG-GATES - Regimen: Single; assay type: toxicity, organism-based, Sprague-Dawley; set-up: regimen Single, gender Male, age 6 weeks; conditions: in vivo, po, 100 mg/kg, 3 h, tissue Plasma, route gavage, dose level Low
Give the number; IU/L is assumed, so skip it.

// known answers, use as guide
compound	scale unit	ALP
O=C(OC[C@H]1O[C@@H](OC(=O)c2cc(O)c(O)c(OC(=O)c3cc(O)c(O)c(O)c3)c2)[C@H](OC(=O)c2cc(O)c(O)c(OC(=O)c3cc(O)c(O)c(O)c3)c2)[C@@H](OC(=O)c2cc(O)c(O)c(OC(=O)c3cc(O)c(O)c(O)c3)c2)[C@@H]1OC(=O)c1cc(O)c(O)c(OC(=O)c2cc(O)c(O)c(O)c2)c1)c1cc(O)c(O)c(OC(=O)c2cc(O)c(O)c(O)c2)c1 [TANNIC ACID]	IU/L	882
CNC(=C[N+](=O)[O-])NCCSCc1ccc(CN(C)C)o1 [RANITIDINE]	IU/L	1082.6
CN/C(=N/CCSCc1nc[nH]c1C)NC#N [CIMETIDINE]	IU/L	1167.2

Bench note: what ALP did COC(=O)C1=C(C)NC(C)=C(C(=O)OC)C1c1ccccc1[N+](=O)[O-] [NIFEDIPINE] show?
1399

Bench note: what ALP did Cc1nnc2n1-c1ccc(Cl)cc1C(c1ccccc1Cl)=NC2 [TRIAZOLAM] show?
1479.6

These measurements were taken from ChEMBL document CHEMBL3885861.
